Test system: Arrowhead sp. (Sagittaria pygmaea)
Assay: Submerged Soil Treatment Test (Pre-Emergence Treatment)
Type: in vivo
Conditions: 30 g ai/a, granule, observed 30 days later
QUANTITY KIND: Herbicidal effects Arrowhead sp. (Sagittaria pygmaea)

Need Herbicidal effects Arrowhead sp. (Sagittaria pygmaea) of CCOC(OCC)c1ncccc1Oc1nc(OC)cc(OC)n1 , thanks.
5 (0-5 (Death))

Need Herbicidal effects Arrowhead sp. (Sagittaria pygmaea) of COc1cc(OC)nc(Oc2cccnc2C2OCC(C)O2)n1 (stereo not shown) , thanks.
4 (6-10 (Severe damages))

----------
// Crop injury Cotton (Gossypium indicum) lookup, one value per entry
Tested on: Cotton (Gossypium indicum)
Assay: Upland Soil Application Test, crop injury
Format: in vivo
Details: 30 g ai/a; soil application before emergence, wettable powder; observed 30 days later

* CCCCOC(OCCCC)c1ncccc1Oc1nc(OC)cc(OC)n1 | 0 (91-100 (No damages))

Need Crop injury Cotton (Gossypium indicum) of COc1cc(OC)nc(Oc2cccnc2C2OCC(C)O2)n1 (stereo not shown) , thanks.
0 (91-100 (No damages))

----------
// Crop injury Soybean (Glycine max) lookup, one value per entry
System: Soybean (Glycine max)
Assay: Upland Soil Application Test, crop injury
Type: in vivo
Settings: 30 g ai/a; soil application before emergence, wettable powder; observed 30 days later

* COc1cc(OC)nc(Oc2cccnc2C2OCCO2)n1 | 0 (91-100 (No damages))
* COc1cc(OC)nc(Oc2cccnc2C=O)n1 | 0 (91-100 (No damages))
* CCOC(=O)c1ncccc1Oc1nc(OC)cc(OC)n1 [A, reference compound] | 5 (0-5 (Death))
* COc1cc(OC)nc(Oc2cccnc2C2OCCCO2)n1 | 0 (91-100 (No damages))
* COc1cc(OC)nc(Oc2cccnc2C2OCC(C)O2)n1 (stereo not shown) | 0 (91-100 (No damages))

Need Crop injury Soybean (Glycine max) of COc1cc(OC)nc(Oc2cccnc2C(OC)OC(C)C)n1 (stereo not shown) , thanks.
0 (91-100 (No damages))

Need Crop injury Soybean (Glycine max) of CCCCOC(OCCCC)c1ncccc1Oc1nc(OC)cc(OC)n1 , thanks.
0 (91-100 (No damages))

Need Crop injury Soybean (Glycine max) of COc1cc(OC)nc(Oc2cccnc2C(OC)OC)n1 , thanks.
0 (91-100 (No damages))

Need Crop injury Soybean (Glycine max) of COc1cc(OC)nc(Oc2ccccc2C=O)n1 [B, reference compound] , thanks.
5 (0-5 (Death))

Need Crop injury Soybean (Glycine max) of CCOC(OCC)c1ncccc1Oc1nc(OC)cc(OC)n1 , thanks.
0 (91-100 (No damages))

----------
Tested on: Rice (Oryza sativa)
Assay: Submerged Soil Treatment Test (Growth Stage Treatment), crop injury
Type: in vivo
Details: 30 g ai/a, growth stage treatment (barnyardgrass two-leaf stage), granule, transplanted rice, observed 30 days later
QUANTITY KIND: Crop injury Rice (Oryza sativa)

// solved cases for Crop injury Rice (Oryza sativa) follow
* COc1cc(OC)nc(Oc2cccnc2C(OC)OC)n1 | 0 (91-100 (No damages))
* CCOC(OCC)c1ncccc1Oc1nc(OC)cc(OC)n1 | 0 (91-100 (No damages))
* COc1cc(OC)nc(Oc2cccnc2C2OCC(C)O2)n1 (stereo not shown) | 0 (91-100 (No damages))
* COc1cc(OC)nc(Oc2ccccc2C=O)n1 [B, reference compound] | 5 (0-5 (Death))
* CCOC(=O)c1ncccc1Oc1nc(OC)cc(OC)n1 [A, reference compound] | 5 (0-5 (Death))

Need Crop injury Rice (Oryza sativa) of COc1cc(OC)nc(Oc2cccnc2C(OC)OC(C)C)n1 (stereo not shown) , thanks.
0 (91-100 (No damages))

Need Crop injury Rice (Oryza sativa) of COc1cc(OC)nc(Oc2cccnc2C2OCCCO2)n1 , thanks.
0 (91-100 (No damages))

Need Crop injury Rice (Oryza sativa) of COc1cc(OC)nc(Oc2cccnc2C2OCCO2)n1 , thanks.
0 (91-100 (No damages))

Need Crop injury Rice (Oryza sativa) of COc1cc(OC)nc(Oc2cccnc2C=O)n1 , thanks.
1 (71-90 (Slight damages))

Need Crop injury Rice (Oryza sativa) of CCCCOC(OCCCC)c1ncccc1Oc1nc(OC)cc(OC)n1 , thanks.
0 (91-100 (No damages))

----------
Tested on: ALS (acetolactate synthase)
Experiment: ALS (Acetolactate Synthase) Inhibition Test, barnyardgrass enzyme
Format: biochemical
Details: enzymoreaction inhibition rate at 10 ppm (5 μg/0.5 ml)
QUANTITY KIND: Inhibition rate (%) Barnyardgrass
Express the result in % but write the number alone.

- COc1cc(OC)nc(Oc2cccnc2C2OCC(C)O2)n1 (stereo not shown) [Compound No. 7]: 87
- COc1cc(OC)nc(Oc2ccccc2C=O)n1 [B, reference compound]: 98
- CCCCOC(OCCCC)c1ncccc1Oc1nc(OC)cc(OC)n1 [Compound No. 4]: 94
- COc1cc(OC)nc(Oc2cccnc2C2OCCCO2)n1 [Compound No. 8]: 86
- COc1cc(OC)nc(Oc2cccnc2C2OCCO2)n1 [Compound No. 6]: 96
- COc1cc(OC)nc(Oc2cccnc2C(OC)OC(C)C)n1 (stereo not shown) [Compound No. 5]: 100
- CCOC(OCC)c1ncccc1Oc1nc(OC)cc(OC)n1 [Compound No. 3]: 84
- COc1cc(OC)nc(Oc2cccnc2C(OC)OC)n1 [Compound No. 2]: 81
- CCOC(=O)c1ncccc1Oc1nc(OC)cc(OC)n1 [A, reference compound]: 5

Need Inhibition rate (%) Barnyardgrass of COc1cc(OC)nc(Oc2cccnc2C=O)n1 [Compound No. 1] , thanks.
100

----------
Test system: Corn (Zea maize)
Experiment: Upland Foliar Application Test, crop injury
Format: in vivo
Settings: 30 g ai/a; foliar application at 2-3 leaf stage, emulsion; observed on the 30th day
// Crop injury Corn (Zea maize) lookup, one value per entry

// solved cases for Crop injury Corn (Zea maize) follow
- COc1cc(OC)nc(Oc2cccnc2C(OC)OC)n1 [Compound No. 2]: 0 (91-100 (No damages))
- COc1cc(OC)nc(Oc2cccnc2C2OCCO2)n1 [Compound No. 6]: 0 (91-100 (No damages))
- CCCCOC(OCCCC)c1ncccc1Oc1nc(OC)cc(OC)n1 [Compound No. 4]: 0 (91-100 (No damages))

Need Crop injury Corn (Zea maize) of COc1cc(OC)nc(Oc2cccnc2C=O)n1 [Compound No. 1] , thanks.
0 (91-100 (No damages))

Need Crop injury Corn (Zea maize) of COc1cc(OC)nc(Oc2cccnc2C2OCC(C)O2)n1 (stereo not shown) [Compound No. 7] , thanks.
0 (91-100 (No damages))

Need Crop injury Corn (Zea maize) of CCOC(=O)c1ncccc1Oc1nc(OC)cc(OC)n1 [A, reference compound] , thanks.
5 (0-5 (Death))

Need Crop injury Corn (Zea maize) of CCOC(OCC)c1ncccc1Oc1nc(OC)cc(OC)n1 [Compound No. 3] , thanks.
0 (91-100 (No damages))

Need Crop injury Corn (Zea maize) of COc1cc(OC)nc(Oc2cccnc2C2OCCCO2)n1 [Compound No. 8] , thanks.
0 (91-100 (No damages))

Need Crop injury Corn (Zea maize) of COc1cc(OC)nc(Oc2ccccc2C=O)n1 [B, reference compound] , thanks.
5 (0-5 (Death))

Need Crop injury Corn (Zea maize) of COc1cc(OC)nc(Oc2cccnc2C(OC)OC(C)C)n1 (stereo not shown) [Compound No. 5] , thanks.
0 (91-100 (No damages))

----------
Tested on: Redroot Pigweed
Test: Upland Foliar Application Test
Type: in vivo
Settings: 30 g ai/a; foliar application at 2-3 leaf stage, emulsion; observed on the 30th day
From the text: Resin-made 1/10000-are pots were filled with the soil of an upland field. Redroot pigweed, morningglory (Ipomoea pupurea), common lambsquarters, foxtail meadow, johnsongrass, barnyardgrass, green foxtail, large crabgrass, soybean, corn and cotton were separately seeded and were allowed to germinate in a green house. […]
QUANTITY KIND: Herbicidal effects Redroot Pigweed

// solved cases for Herbicidal effects Redroot Pigweed follow
• CCOC(OCC)c1ncccc1Oc1nc(OC)cc(OC)n1 = 5 (0-5 (Death))
• COc1cc(OC)nc(Oc2cccnc2C2OCC(C)O2)n1 (centres unmarked) = 5 (0-5 (Death))
• COc1cc(OC)nc(Oc2cccnc2C2OCCCO2)n1 = 4 (6-10 (Severe damages))
• COc1cc(OC)nc(Oc2cccnc2C(OC)OC(C)C)n1 (centres unmarked) = 5 (0-5 (Death))

Could you now consider this next compound?
Need Herbicidal effects Redroot Pigweed of COc1cc(OC)nc(Oc2cccnc2C=O)n1 , thanks.
5 (0-5 (Death))

----------
// Herbicidal effects Redroot Pigweed lookup, one value per entry
Test system: Redroot Pigweed
Test: Upland Soil Application Test
Format: in vivo
Details: 30 g ai/a; soil application before emergence, wettable powder; observed 30 days later

// solved cases for Herbicidal effects Redroot Pigweed follow
• CCCCOC(OCCCC)c1ncccc1Oc1nc(OC)cc(OC)n1 [Compound No. 4] = 5 (0-5 (Death))
• COc1cc(OC)nc(Oc2cccnc2C2OCCCO2)n1 [Compound No. 8] = 3 (11-40 (Medium damages))
• CCOC(=O)c1ncccc1Oc1nc(OC)cc(OC)n1 [A, reference compound] = 4 (6-10 (Severe damages))
• COc1cc(OC)nc(Oc2ccccc2C=O)n1 [B, reference compound] = 3 (11-40 (Medium damages))
• COc1cc(OC)nc(Oc2cccnc2C2OCCO2)n1 [Compound No. 6] = 4 (6-10 (Severe damages))
• COc1cc(OC)nc(Oc2cccnc2C(OC)OC)n1 [Compound No. 2] = 4 (6-10 (Severe damages))
• COc1cc(OC)nc(Oc2cccnc2C2OCC(C)O2)n1 (stereo not shown) [Compound No. 7] = 4 (6-10 (Severe damages))
• CCOC(OCC)c1ncccc1Oc1nc(OC)cc(OC)n1 [Compound No. 3] = 5 (0-5 (Death))
• COc1cc(OC)nc(Oc2cccnc2C(OC)OC(C)C)n1 (stereo not shown) [Compound No. 5] = 5 (0-5 (Death))

Need Herbicidal effects Redroot Pigweed of COc1cc(OC)nc(Oc2cccnc2C=O)n1 [Compound No. 1] , thanks.
3 (11-40 (Medium damages))

Where do the numbers come from? From patent US5129937A.
